System: B16-F10 melanoma cell line
Method: PrestoBlue cytotoxicity assay against B16-F10 melanoma cells
Type: cell-based
Stated Conditions: Mus musculus, 24 h incubation, run twice and averaged, read-out: IC50 for B16-F10 (μg/mL)
Overview of recorded IC50 for various molecules
Supply the numeric figure in µg/mL, leaving out any unit text.

1) C=C(CCC=C(C)C)C1CC[C@]2(C)C1CC[C@@H]1[C@@]3(C)CCC(=O)C(C)(C)C3CC[C@]12C (stereo partly shown); 54.8
2) CC(=O)O[C@@H]1CC[C@@]2(C)C(CC[C@]3(C)C2CCC2C([C@]4(C)CCC(=O)O4)CC[C@]23C)C1(C)C (stereo partly drawn) [Compound 6, 3α-acetyl-cabraleahydroxy lactone]; 126
3) CC(C)(O)[C@@H]1CC[C@@](C)(C2CC[C@]3(C)C2CCC2[C@@]4(C)CC[C@@H](O)C(C)(C)C4CC[C@]23C)O1 (stereo partly drawn) [Compound 1, 20S,24S-epoxy-3α,25-dihydroxy-dammarane]; 44.8

Turning to the following molecule.
Request: Answer with the recorded IC50 of COC1CC[C@@](C)(C2CC[C@]3(C)C2CCC2[C@@]4(C)CCC(=O)C(C)(C)C4CC[C@]23C)O1 (stereo partly shown) only.
Result: 45.4
